target: Protein arginine N-methyltransferase 1 (Homo sapiens) (UniProt Q99873); assay: human PRMT1 activity-probe blockers – biochemical, fluorescence polarization, primary screen (AID 652257); conditions: recombinant PRMT1, activity-based probe fluorescence polarization; at 2.79 µM
Sequence (Q99873 whole entry, looked up): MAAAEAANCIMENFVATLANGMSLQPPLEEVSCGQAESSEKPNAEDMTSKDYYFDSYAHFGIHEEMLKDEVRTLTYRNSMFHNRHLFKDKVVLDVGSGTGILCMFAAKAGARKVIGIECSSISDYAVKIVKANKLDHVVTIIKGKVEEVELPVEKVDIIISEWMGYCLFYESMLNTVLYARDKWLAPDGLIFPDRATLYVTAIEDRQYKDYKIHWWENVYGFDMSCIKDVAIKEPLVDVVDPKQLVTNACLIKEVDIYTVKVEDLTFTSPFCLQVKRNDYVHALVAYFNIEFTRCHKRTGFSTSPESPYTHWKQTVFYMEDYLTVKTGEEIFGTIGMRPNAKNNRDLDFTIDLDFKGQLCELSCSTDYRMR
Out of some 370,000 compounds screened, about 4,800 (1.3%) were called active.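 The calls were made as follows: active = inhibition above about 21% made by adding two undisclosed values (limit read from the data); inactive = the rest.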 This is one part of a sample in which actives are shown more often than they occur.
Possible outcomes: active, inactive

- MOLECULE: "Cc1ccc(S(=O)(=O)N2CCN(C)CC2)cc1C(=O)NC1CCCCC1"
  CLASS: "inactive"
- MOLECULE: "O=C1Nc2ccccc2C1=NN=Cc1ccco1"
  CLASS: "inactive"
- MOLECULE: "O=C1/C(=C/c2cccs2)SC(=S)N1C1CCS(=O)(=O)C1 (stereo unspecified)"
  CLASS: "inactive"
- MOLECULE: "CCOCc1c(C(=O)N2CCN(Cc3ccc(Br)s3)CC2)oc2ccccc12"
  CLASS: "inactive"
- MOLECULE: "Cc1cc(C)c(/C=C2\\C(=O)Nc3ccccc32)[nH]1"
  CLASS: "active"
- MOLECULE: "COc1ccc(CCNC(=O)CSc2nc3c([nH]2)c(=O)n(C)c(=O)n3C)cc1"
  CLASS: "inactive"
- MOLECULE: "Cc1ccc(C)c(NC(=O)CCS(=O)(=O)c2ccccc2)c1"
  CLASS: "inactive"
- MOLECULE: "Cc1cccc(OCCCC(=O)Nc2ccc(S(=O)(=O)N3CCCC3)cc2)c1"
  CLASS: "inactive"
- MOLECULE: "CSc1nsc(SCC(=O)Nc2cc(C(=O)O)ccc2C)n1"
  CLASS: "inactive"
- MOLECULE: "CCC[C@H]1C(=O)CC[C@@]23CCCN2C(=O)CCC[C@@H]13"
  CLASS: "inactive"
- MOLECULE: "COc1ccc(NC(=O)CSc2nc(SC)ns2)c(OC)c1"
  CLASS: "active"

----------
Below, each entry is listed alongside its reported inhibition.
target: Protein arginine N-methyltransferase 1 (Homo sapiens) (UniProt Q99873); assay: human PRMT1 activity-probe blockers – biochemical, fluorescence polarization, primary screen (AID 652257); conditions: recombinant PRMT1, activity-based probe fluorescence polarization; at 2.79 µM; active compounds read high
Among all 370,000 compounds or so, about 4,800 (1.3%) were called active. Many of the other results were omitted from the sample, so actives are more common in it than they were.
ENDPOINT: inhibition (%)

- COMPOUND: "Cc1cccc(NC(=O)CSc2nc3c(c(=O)[nH]2)CCCC3)c1C"
  REPORTED RESULT: -0.58
- COMPOUND: "O=C1CC[C@@H](COc2ccc3[nH]cc(-c4ccccc4)c3c2-c2ccccc2)N1"
  REPORTED RESULT: -0.73
- COMPOUND: "O=C(/C=C/c1ccc([N+](=O)[O-])o1)NNC(=O)c1ccc(F)cc1"
  REPORTED RESULT: 5.67
- COMPOUND: "CN(CC(=O)NC1CCCC1)S(=O)(=O)c1cnc[nH]1"
  REPORTED RESULT: -5.5
- COMPOUND: "CCOC(=O)C1CCN(C(=O)C(C)(C)NC(=O)Nc2ccccc2Cl)CC1"
  REPORTED RESULT: -1.31
- COMPOUND: "C[C@@H](NC(=O)c1ccccc1OCC(=O)Nc1ccc(I)cc1)C(=O)N(C)Cc1ccccc1"
  REPORTED RESULT: -0.05
- COMPOUND: "Cc1cccc(NC(=O)COC(=O)CCc2ccccc2)c1C"
  REPORTED RESULT: -1.61
- COMPOUND: "C=C(C)C#CC(Cc1ccccc1)N(CC1CC1)/C(N)=N/C(=O)OCc1ccccc1 (stereo unspecified)"
  REPORTED RESULT: -3.31
- COMPOUND: "Nc1[nH]c(/C=C2/CCCCC2n2[nH]c(=O)n(-c3ccccc3)c2=O)c(Cc2ccccc2)[n+]1Cc1ccccc1 (stereo unspecified)"
  REPORTED RESULT: -2.27
- COMPOUND: "C=CCNC(=S)NNC(=O)COc1c(Cl)cc(Cl)cc1Cl"
  REPORTED RESULT: 1.94
- COMPOUND: "O=C(C1CC(=O)N(c2ccc(F)cc2)C1)N1CCN(c2ccccc2)CC1 (stereo unspecified)"
  REPORTED RESULT: -0.62
- COMPOUND: "C=C(C)C#CC(Cc1ccccc1)NCC1CC1 (stereo unspecified)"
  REPORTED RESULT: 7.99
- COMPOUND: "O=C(CSc1nnc(COc2ccccc2)n1Cc1ccco1)c1ccc2ccccc2c1"
  REPORTED RESULT: 4.78
- COMPOUND: "Cc1ccc(/C=C/C(=O)Nc2ccc([N+](=O)[O-])c(NC(=O)/C=C/c3ccc(C)o3)c2)o1"
  REPORTED RESULT: 41.1
- COMPOUND: "O=c1[nH]c2ccccc2n2c(-c3ccccc3)nnc12"
  REPORTED RESULT: 85.2
- COMPOUND: "CC(=O)Nc1nc2ncccn2c1-c1ccc(C(F)(F)F)cc1"
  REPORTED RESULT: 5.51
- COMPOUND: "Cc1cccc(NC(=O)CSC(N)=O)c1C"
  REPORTED RESULT: 35.8
- COMPOUND: "O=C(NC1CCCCN(Cc2cccc(C(F)(F)F)c2)C1=O)c1ccccc1I (stereo unspecified)"
  REPORTED RESULT: -1.71
- COMPOUND: "Cc1sc2nc(SCC(=O)c3ccc(O)c(O)c3)n(Cc3ccco3)c(=O)c2c1C"
  REPORTED RESULT: 25.1
- COMPOUND: "CC(=O)O[C@@]1(C(C)=O)CCC2[C@H]3C=C(C)C4=CC(=O)CC[C@@]4(C)C3CC[C@]21C (stereo partly specified)"
  REPORTED RESULT: -2.39
- COMPOUND: "Cc1cc(NC(=O)COC(=O)/C=C/c2ccc(C)o2)no1"
  REPORTED RESULT: 5.65
